Molecular target: human VR1 (Homo sapiens, UniProt Q8NER1)
Construct: expressed in transfected cells; host or cells: HEK293
Sequence (Q8NER1 whole entry): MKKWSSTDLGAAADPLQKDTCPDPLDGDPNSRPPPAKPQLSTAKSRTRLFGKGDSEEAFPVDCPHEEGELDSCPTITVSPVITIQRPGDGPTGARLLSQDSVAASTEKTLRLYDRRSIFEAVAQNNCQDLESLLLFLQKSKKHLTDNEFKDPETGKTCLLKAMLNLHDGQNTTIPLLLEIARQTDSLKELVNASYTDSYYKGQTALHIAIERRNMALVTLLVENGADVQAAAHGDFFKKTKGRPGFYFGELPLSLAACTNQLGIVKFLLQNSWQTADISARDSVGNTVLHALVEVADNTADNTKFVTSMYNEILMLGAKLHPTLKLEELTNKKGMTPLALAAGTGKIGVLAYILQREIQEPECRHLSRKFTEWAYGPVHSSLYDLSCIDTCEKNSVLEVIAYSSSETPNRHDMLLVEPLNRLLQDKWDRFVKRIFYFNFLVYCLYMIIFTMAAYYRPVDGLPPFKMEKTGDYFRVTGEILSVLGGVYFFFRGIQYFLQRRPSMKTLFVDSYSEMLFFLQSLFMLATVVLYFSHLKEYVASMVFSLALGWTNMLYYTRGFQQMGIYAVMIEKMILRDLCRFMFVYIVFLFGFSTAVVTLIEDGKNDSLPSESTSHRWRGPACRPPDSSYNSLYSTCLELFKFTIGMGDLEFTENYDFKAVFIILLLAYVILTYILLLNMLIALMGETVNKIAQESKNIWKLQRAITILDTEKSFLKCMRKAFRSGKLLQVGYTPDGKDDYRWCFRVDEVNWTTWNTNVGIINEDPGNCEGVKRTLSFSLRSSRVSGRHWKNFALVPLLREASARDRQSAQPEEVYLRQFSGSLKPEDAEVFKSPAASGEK
Test: Human VR1 [3H] RTX binding assay
Details: 3H-RTX binding; compound at 1 μM
Label yes (1) when inhibition at 1 µM is at or above 60%; anything below gets no (0).

See these solved cases before continuing.
{"compound": "O=C(Nc1cnc2ccccc2c1)c1ccc(N2CC[C@@H]3CCCC[C@@H]3C2)cc1 (relative stereo)", "assigned.class": "yes (1)"}
{"compound": "O=C(Nc1cnc2ccccc2c1)c1ccc(N2CCC3(CC2)OCCO3)cc1", "assigned.class": "no (0)"}
{"compound": "O=C(Nc1cnc2ccccc2c1)c1ccc(N2Cc3ccccc3C2)cc1", "assigned.class": "no (0)"}

Qu. Identify whether the reported inhibition at 1 µM of the following compound is 60% or greater: O=C(Nc1cnc2ccccc2c1)c1ccc(NCC2CCCCC2)cc1Cl
Ans. yes (1)

Qu. API: above_or_equal(metric=inhibition at 1 µM, cutoff=60%) for item CN(c1cccc(C(=O)Nc2cnc3ccccc3c2)c1)C1CCCCC1
Ans. yes (1)
